- assay_notes: method code SF-AS, from DOI: 10.1021/jm00114a020, PMID: 1920359
- condition_summary: pH 7.4
Rule: logD under 0.4 gives label 0, otherwise label 1.

# input Could you verify whether the entry `NS(=O)(=O)c1ccc(SCCO)cc1` shows logD of no less than 0.4?
# output label 0

# input Could you verify whether the entry `Nc1cc(S(N)(=O)=O)ccc1S(=O)(=O)CCO` shows logD of no less than 0.4?
# output label 0

# input Could you verify whether the entry `NS(=O)(=O)c1ccc(S(=O)(=O)CCCO)s1` shows logD of no less than 0.4?
# output label 0

# input Could you verify whether the entry `Nc1cc(S(N)(=O)=O)ccc1S(=O)(=O)CCCO` shows logD of no less than 0.4?
# output label 0

# input Could you verify whether the entry `NS(=O)(=O)c1ccc(S(=O)(=O)CCO)c(F)c1` shows logD of no less than 0.4?
# output label 0

# input Could you verify whether the entry `CC(C)(O)CCSc1ccc(S(N)(=O)=O)cc1` shows logD of no less than 0.4?
# output label 1

# input Could you verify whether the entry `CC(=O)OCCS(=O)(=O)c1ccc(S(N)(=O)=O)s1` shows logD of no less than 0.4?
# output label 0

# input Could you verify whether the entry `NS(=O)(=O)c1ccc(CCCCCO)cc1` shows logD of no less than 0.4?
# output label 1

# input Could you verify whether the entry `NS(=O)(=O)c1ccc(SCCCO)c([N+](=O)[O-])c1` shows logD of no less than 0.4?
# output label 1

----------
- assay_notes: method code SF-AS, from DOI: 10.1021/jm00114a020, PMID: 1920359
- condition_summary: pH 7.4
readout_name: logD

# input What value of logD has been reported for the following compound? `NS(=O)(=O)c1ccc(CCCO)cc1`
# output 0.17

# input What value of logD has been reported for the following compound? `CC(C)(O)CCS(=O)(=O)c1ccc(S(N)(=O)=O)cc1`
# output -0.09

# input What value of logD has been reported for the following compound? `NS(=O)(=O)c1ccc(SCCO)c(F)c1`
# output 0.72

# input What value of logD has been reported for the following compound? `NS(=O)(=O)c1ccc(SCCO)s1`
# output 0.38

# input What value of logD has been reported for the following compound? `NS(=O)(=O)c1ccc(S(=O)(=O)CCCCO)s1`
# output -0.34

# input What value of logD has been reported for the following compound? `NS(=O)(=O)c1ccc(S(=O)(=O)CCO)s1`
# output -0.54

# input What value of logD has been reported for the following compound? `NS(=O)(=O)c1ccc(S(=O)(=O)CCCO)c(F)c1`
# output -0.41

# input What value of logD has been reported for the following compound? `CC(=O)OCCCCCc1ccc(S(N)(=O)=O)cc1`
# output 1.86

# input What value of logD has been reported for the following compound? `CC(=O)OCCCc1ccc(S(N)(=O)=O)cc1`
# output 0.98

# input What value of logD has been reported for the following compound? `NS(=O)(=O)c1ccc(S(=O)(=O)CCCO)cc1`
# output -0.64

# input What value of logD has been reported for the following compound? `NS(=O)(=O)c1ccc(SCCCCCO)cc1`
# output 1.04

# input What value of logD has been reported for the following compound? `COCC(=O)OCCCS(=O)(=O)c1ccc(S(N)(=O)=O)s1`
# output -0.14

# input What value of logD has been reported for the following compound? `NS(=O)(=O)c1ccc(SCCCO)cc1`
# output 0.8

# input What value of logD has been reported for the following compound? `NS(=O)(=O)c1ccc(SCCCO)c(Cl)c1`
# output 1.59

# input What value of logD has been reported for the following compound? `NS(=O)(=O)c1ccc(SCCO)c([N+](=O)[O-])c1`
# output 0.38

# input What value of logD has been reported for the following compound? `NS(=O)(=O)c1ccc(SCCCCO)s1`
# output 0.95

# input What value of logD has been reported for the following compound? `COC(=O)c1cc(S(N)(=O)=O)ccc1S(=O)(=O)CCO`
# output -0.47

# input What value of logD has been reported for the following compound? `CC(=O)OCCCS(=O)(=O)c1ccc(S(N)(=O)=O)s1`
# output 0.17

# input What value of logD has been reported for the following compound? `NS(=O)(=O)c1ccc(S(=O)(=O)CCO)cc1`
# output -0.85

# input What value of logD has been reported for the following compound? `COC(=O)c1cc(S(N)(=O)=O)ccc1S(=O)(=O)CCCO`
# output -0.3

# input What value of logD has been reported for the following compound? `NS(=O)(=O)c1ccc(S(=O)(=O)CCCCO)cc1`
# output -0.26

# input What value of logD has been reported for the following compound? `NS(=O)(=O)c1ccc(CCCCO)cc1`
# output 0.57

# input What value of logD has been reported for the following compound? `NS(=O)(=O)c1ccc(SCCCO)c(F)c1`
# output 0.99

# input What value of logD has been reported for the following compound? `NS(=O)(=O)c1ccc(S(=O)(=O)CCCO)c([N+](=O)[O-])c1`
# output -0.05

# input What value of logD has been reported for the following compound? `NS(=O)(=O)c1ccc(SCCCCO)c(F)c1`
# output 1.28

# input What value of logD has been reported for the following compound? `NS(=O)(=O)c1ccc(SCCCO)s1`
# output 0.85

# input What value of logD has been reported for the following compound? `NS(=O)(=O)c1ccc(SCCCCO)cc1`
# output 0.93
